# Tested On: BRD4 (BDI_K57-E168) (Homo sapiens)
# Construct: BD1: amino acids K57-E168; made in house
# Assay Comment: TR-FRET bromodomain binding assay, BRD4 first bromodomain
# Assay Setup: His-tagged BD1, Alexa647-labeled probe 100 nM; Ki calculated from IC50
pKi: −log10 of the molar value.
Property: pKi

Completed entries (count: 3):
1) Cc1[nH]c(-c2ccccc2Oc2ccc(N)cc2)cc1C(N)=O 6.60
2) COc1cc(CNc2ccccc2-c2cc(C(N)=O)c(C)[nH]2)cc(OC)c1OC 5.93
3) Cc1[nH]c(-c2ccccc2NCc2ccc(N)cc2)cc1C(N)=O 5.51

P = Cc1[nH]c(-c2ccccc2-n2ccc(=O)cc2)cc1C(N)=O
Q = Cc1[nH]c(-c2ccccc2NS(=O)(=O)Cc2ccccc2)cc1C(N)=O
R = Cc1[nH]c(-c2ccccc2N)cc1C(N)=O
S = Cc1[nH]c(-c2ccccc2NCc2ccc(CO)o2)cc1C(N)=O
T = Cc1[nH]c(-c2ccccc2NC2CCOCC2)cc1C(N)=O
Request: Sort by pKi, descending. Enter labels, ranked according to the request.
Result: Q, T, S, R, P
